test: Cynomolgus monkey plasma pharmacokinetics; conditions: male, iv, 4.37 mg/kg, T1/2, monkey P102, 4.37 mg/kg i.v. bolus
Counter-ions that a name gives are not always drawn.
Recorded metric: half-life (h)
# output: bare number, implied unit h

Dear colleague, I am looking for the recorded half-life of the following compound: Cc1ccc(C(=O)Nc2ccc(S(=O)(=O)O)c3cc(S(=O)(=O)O)cc(S(=O)(=O)O)c23)cc1NC(=O)c1cccc(NC(=O)Nc2cccc(C(=O)Nc3cc(C(=O)Nc4ccc(S(=O)(=O)O)c5cc(S(=O)(=O)O)cc(S(=O)(=O)O)c45)ccc3C)c2)c1 [suramin, Suramin sodium salt]
112

====

assay: Cynomolgus monkey plasma pharmacokinetics; settings: male, iv, 4.37 mg/kg, AUC0-inf, monkey P103, 4.37 mg/kg i.v. bolus
Where a name gives a salt, the structure may show the parent alone.
Recorded metric: AUC(0-inf) (µg·h/mL)
Use µg·h/mL as the unit, but write only the number.

Please look up its AUC(0-inf): Cc1ccc(C(=O)Nc2ccc(S(=O)(=O)O)c3cc(S(=O)(=O)O)cc(S(=O)(=O)O)c23)cc1NC(=O)c1cccc(NC(=O)Nc2cccc(C(=O)Nc3cc(C(=O)Nc4ccc(S(=O)(=O)O)c5cc(S(=O)(=O)O)cc(S(=O)(=O)O)c45)ccc3C)c2)c1 [suramin, Suramin sodium salt]
2620
